Tested on: 233499-124-R-J3-PDC spheroids with HUVEC/MSC, viability
protocol_notes: Anticancer human tumor 233499-124-R-J3-PDC patient-derived colon adenocarcinoma cell line growth inhibition [PI3K]
setup_conditions: second compound 3.16 µM; first compound 0.1 µM; active compounds read low
Measured viability, T/C of individual entries
measured_parameter: viability, T/C (%)

[[record]]
compound = "C[C@@H](NC(=O)c1ncnc(N)c1Cl)c1ncc(C(=O)Nc2cc(C(F)(F)F)c(Cl)cn2)s1 + CC(Nc1ncnc2nc[nH]c12)c1cc2cccc(Cl)c2c(=O)n1-c1ccccc1"
unit_info = "%"
result = 101

[[record]]
compound = "CC(C)NCC(C(=O)N1CCN(c2ncnc3c2C(C)CC3O)CC1)c1ccc(Cl)cc1 (stereo not given) + Cc1nc(NC(=O)N2CCCC2C(N)=O)sc1-c1ccnc(C(C)(C)C(F)(F)F)c1"
unit_info = "%"
result = 29.6

[[record]]
compound = "C[C@@H](NC(=O)c1ncnc(N)c1Cl)c1ncc(C(=O)Nc2cc(C(F)(F)F)c(Cl)cn2)s1 + Cc1nc(NC(=O)N2CCCC2C(N)=O)sc1-c1ccnc(C(C)(C)C(F)(F)F)c1"
unit_info = "%"
result = 71.5

[[record]]
compound = "C=CC(=O)N1CCN(c2nc(=O)n(-c3c(C)ccnc3C(C)C)c3nc(-c4c(O)cccc4F)c(F)cc23)C(C)C1 (stereo not given) + Cc1nc(NC(=O)N2CCCC2C(N)=O)sc1-c1ccnc(C(C)(C)C(F)(F)F)c1"
unit_info = "%"
result = 51.1

[[record]]
compound = "Cn1ncc(Cl)c1-c1cc(C(=O)NC(CN)Cc2cccc(F)c2)sc1Cl (stereo not given) + Cc1nc(NC(=O)N2CCCC2C(N)=O)sc1-c1ccnc(C(C)(C)C(F)(F)F)c1"
unit_info = "%"
result = 69.9


----------
Test system: 233499-124-R-J3-PDC spheroids with HUVEC/MSC, viability
protocol_notes: Anticancer human tumor 233499-124-R-J3-PDC cell line growth inhibition [PI3K];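 also: spheroids exposed to agents for seven days before readout; percent viability relative to DMSO vehicle control taken as 100%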
setup_conditions: second compound 0.1 µM; first compound 0.949 µM; active compounds read low
measured_parameter: viability, T/C (%)

[[record]]
molecule = "Cn1cnc2c(F)c(Nc3ccc(Br)cc3Cl)c(C(=O)NOCCO)cc21 + Cc1nc(NC(=O)N2CCCC2C(N)=O)sc1-c1ccnc(C(C)(C)C(F)(F)F)c1"
unit_info = "%"
result = 28.4

[[record]]
molecule = "Cn1cnc2c(F)c(Nc3ccc(Br)cc3Cl)c(C(=O)NOCCO)cc21 + COc1c(OCCCN2CCOCC2)ccc2c3n(c(=NC(=O)c4cnc(N)nc4)nc12)CCN3"
unit_info = "%"
result = 19.1

[[record]]
molecule = "Cn1cnc2c(F)c(Nc3ccc(Br)cc3Cl)c(C(=O)NOCCO)cc21 + CC(Nc1ncnc2nc[nH]c12)c1cc2cccc(Cl)c2c(=O)n1-c1ccccc1"
unit_info = "%"
result = 40.3

[[record]]
molecule = "Cn1cnc2c(F)c(Nc3ccc(Br)cc3Cl)c(C(=O)NOCCO)cc21 + CC(Nc1ccc2c(c1)OCCn1cc(N3C(=O)OCC3C(F)F)nc1-2)C(N)=O"
unit_info = "%"
result = 22.9


----------
Test system: 233499-124-R-J3-PDC spheroids with HUVEC/MSC, viability
protocol_notes: Anticancer human tumor 233499-124-R-J3-PDC cell line growth inhibition [PI3K];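 also: spheroids exposed to agents for seven days before readout; percent viability relative to DMSO vehicle control taken as 100%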
setup_conditions: second compound 0.00316 µM; first compound 3.16 µM; active compounds read low
Measured viability, T/C of individual entries
measured_parameter: viability, T/C (%)

[[record]]
compound = "Cn1nccc1Nc1nccc(-c2ccn(C(CO)c3ccc(Cl)c(F)c3)c(=O)c2)n1 (configuration not stated) + CC(Nc1ccc2c(c1)OCCn1cc(N3C(=O)OCC3C(F)F)nc1-2)C(N)=O"
experimental_target = "233499-124-R-J3-PDC spheroids with HUVEC/MSC, viability"
measured_parameter = "viability, T/C"
result = 52.7

[[record]]
compound = "CC(Cn1ccc(-c2ccc(C#N)c(Cl)c2)n1)NC(=O)c1cc(C(C)O)[nH]n1 (configuration not stated) + COc1c(OCCCN2CCOCC2)ccc2c3n(c(=NC(=O)c4cnc(N)nc4)nc12)CCN3"
experimental_target = "233499-124-R-J3-PDC spheroids with HUVEC/MSC, viability"
measured_parameter = "viability, T/C"
result = 101

[[record]]
compound = "CNC(=O)c1ccc(N2C(=S)N(c3ccc(C#N)c(C(F)(F)F)c3)C(=O)C2(C)C)cc1F + CC(Nc1ccc2c(c1)OCCn1cc(N3C(=O)OCC3C(F)F)nc1-2)C(N)=O"
experimental_target = "233499-124-R-J3-PDC spheroids with HUVEC/MSC, viability"
measured_parameter = "viability, T/C"
result = 78.3

[[record]]
compound = "C#Cc1c(F)ccc2cc(O)cc(-c3ncc4c(N5CC6CCC(C5)N6)nc(OCC56CCCN5CC(F)C6)nc4c3F)c12 (configuration not stated) + CC(Nc1ccc2c(c1)OCCn1cc(N3C(=O)OCC3C(F)F)nc1-2)C(N)=O"
experimental_target = "233499-124-R-J3-PDC spheroids with HUVEC/MSC, viability"
measured_parameter = "viability, T/C"
result = 95.3

[[record]]
compound = "CC1(C)CCC(Nc2ncc(C(F)(F)F)c(-c3c[nH]c4c(P(C)(C)=O)c(C#N)ccc34)n2)CN1 (configuration not stated) + CC(Nc1ccc2c(c1)OCCn1cc(N3C(=O)OCC3C(F)F)nc1-2)C(N)=O"
experimental_target = "233499-124-R-J3-PDC spheroids with HUVEC/MSC, viability"
measured_parameter = "viability, T/C"
result = 34.4

[[record]]
compound = "CC(Cn1ccc(-c2ccc(C#N)c(Cl)c2)n1)NC(=O)c1cc(C(C)O)[nH]n1 (configuration not stated) + CC(Nc1ccc2c(c1)OCCn1cc(N3C(=O)OCC3C(F)F)nc1-2)C(N)=O"
experimental_target = "233499-124-R-J3-PDC spheroids with HUVEC/MSC, viability"
measured_parameter = "viability, T/C"
result = 90.8

[[record]]
compound = "CC(C)NCC(C(=O)N1CCN(c2ncnc3c2C(C)CC3O)CC1)c1ccc(Cl)cc1 (configuration not stated) + CC(Nc1ccc2c(c1)OCCn1cc(N3C(=O)OCC3C(F)F)nc1-2)C(N)=O"
experimental_target = "233499-124-R-J3-PDC spheroids with HUVEC/MSC, viability"
measured_parameter = "viability, T/C"
result = 94.2

[[record]]
compound = "CC1(C)CCC(CN2CCN(c3ccc(C(=O)NS(=O)(=O)c4ccc(NCC5CCOCC5)c([N+](=O)[O-])c4)c(Oc4cnc5[nH]ccc5c4)c3)CC2)=C(c2ccc(Cl)cc2)C1 + COc1c(OCCCN2CCOCC2)ccc2c3n(c(=NC(=O)c4cnc(N)nc4)nc12)CCN3"
experimental_target = "233499-124-R-J3-PDC spheroids with HUVEC/MSC, viability"
measured_parameter = "viability, T/C"
result = 99

[[record]]
compound = "C=CC(=O)N1CCN(c2nc(=O)n(-c3c(C)ccnc3C(C)C)c3nc(-c4c(O)cccc4F)c(F)cc23)C(C)C1 (configuration not stated) + CC(Nc1ccc2c(c1)OCCn1cc(N3C(=O)OCC3C(F)F)nc1-2)C(N)=O"
experimental_target = "233499-124-R-J3-PDC spheroids with HUVEC/MSC, viability"
measured_parameter = "viability, T/C"
result = 100

[[record]]
compound = "C[C@@H](NC(=O)c1ncnc(N)c1Cl)c1ncc(C(=O)Nc2cc(C(F)(F)F)c(Cl)cn2)s1 + COc1c(OCCCN2CCOCC2)ccc2c3n(c(=NC(=O)c4cnc(N)nc4)nc12)CCN3"
experimental_target = "233499-124-R-J3-PDC spheroids with HUVEC/MSC, viability"
measured_parameter = "viability, T/C"
result = 120

[[record]]
compound = "Cn1ncc(Cl)c1-c1cc(C(=O)NC(CN)Cc2cccc(F)c2)sc1Cl (configuration not stated) + CC(Nc1ccc2c(c1)OCCn1cc(N3C(=O)OCC3C(F)F)nc1-2)C(N)=O"
experimental_target = "233499-124-R-J3-PDC spheroids with HUVEC/MSC, viability"
measured_parameter = "viability, T/C"
result = 58.4

[[record]]
compound = "CC(C)NCC(C(=O)N1CCN(c2ncnc3c2C(C)CC3O)CC1)c1ccc(Cl)cc1 (configuration not stated) + COc1c(OCCCN2CCOCC2)ccc2c3n(c(=NC(=O)c4cnc(N)nc4)nc12)CCN3"
experimental_target = "233499-124-R-J3-PDC spheroids with HUVEC/MSC, viability"
measured_parameter = "viability, T/C"
result = 98.8

